Biological target: T1, mouse melanocortin 1 receptor (mouse, UniProt Q01727 1-315)
T1 construct: whole, on cells; also called mMC1R; MC1R
T1 sequence (Q01727 whole entry): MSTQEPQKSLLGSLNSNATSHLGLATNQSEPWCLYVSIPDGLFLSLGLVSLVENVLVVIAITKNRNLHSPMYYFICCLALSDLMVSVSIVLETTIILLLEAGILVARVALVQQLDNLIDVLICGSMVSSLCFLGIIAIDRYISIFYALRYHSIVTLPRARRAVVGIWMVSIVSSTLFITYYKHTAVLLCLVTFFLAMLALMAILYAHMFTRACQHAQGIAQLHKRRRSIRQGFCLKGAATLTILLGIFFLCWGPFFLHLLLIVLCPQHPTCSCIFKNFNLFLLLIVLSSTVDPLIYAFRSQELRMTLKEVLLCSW
Assay: 125I-NDP-MSH competition, HEK293 cells
Square brackets hold non-standard residues; d marks the D form. Dap = NC[C@H](N)C(=O)O
measurement.name: IC50 (µM)

INSERT INTO assay_data (binder, measurement_name, numeric_readout) VALUES
  ('cyclo(PCFFNAF[dP]) (Arg111Cys SNP in the Asn scaffold; also called c[Pro-Cys-Phe-Phe-Asn-Ala-Phe-DPro]) [ZMK 3-18]', 'IC50', 24.6),
  ('cyclo(PRYF[Dap]AF[dP]) (Phe112Tyr SNP in the Dap scaffold; also called c[Pro-Arg-Tyr-Phe-Dap-Ala-Phe-DPro]) [ZMK 2-112]', 'IC50', 18);

a. cyclo(PHFF[Dap]AF[dP]) (Arg111His SNP in the Dap scaffold; also called c[Pro-His-Phe-Phe-Dap-Ala-Phe-DPro]) [ZMK 2-99]
b. PRFFXAFP (head-to-tail cyclic; Dap (diaminopropionic acid) at 5; DPro at 8, Dap5 parent scaffold; assayed as TFA salt; also called Compound 2; c[Pro-Arg-Phe-Phe-Dap-Ala-Phe-DPro]) [2 (MDE 6-82-1c)]
Req: Exercise: compare a and b ; which one has the greater IC50? Selection: enter the item's label.
Resp: a
(a: 25 µM, b: 5.2 µM)

This collection of values is drawn from patent US20210179666A1.
